# Test system: Candida albicans
# measurement-notes: Antifungal activity against Candida albicans SC5314 assessed as inhibition of yeast cell to hyphae transition after 4 hrs by microscopic analysis
# Type: functional, organism-based
# test-context: SC5314, 4 h
observation-type: IC50 (µg/mL)

molecule: C=C1C(=O)O[C@@H]2C[C@H](C)C(CCC(C)O)=CC[C@H]12 (some centres undefined)
study-target: Candida albicans
censoring-qualifier: >
observed: 128
--
molecule: C=C1C(=O)O[C@@H]2C[C@@]3(C)CCC[C@H](C)[C@@]34O[C@H]4[C@H]12
study-target: Candida albicans
censoring-qualifier: =
observed: 118
--
molecule: C=C1C(=O)O[C@@H]2C[C@@]3(C)C[C@@H](O)CC(=C)[C@@H]3C[C@H]12
study-target: Candida albicans
censoring-qualifier: >
observed: 128
--
molecule: C=C(C(=O)O)[C@@H]1CC[C@@]2(C)CCC=C(C)C2C1 (some centres undefined)
study-target: Candida albicans
censoring-qualifier: >
observed: 128
--
molecule: C=C1C(=O)O[C@@H]2C[C@]3(C)[C@@H](CCC(C)=O)[C@@H]3C[C@H]12
study-target: Candida albicans
censoring-qualifier: =
observed: 100
--
molecule: C=C1C(=O)O[C@@H]2C[C@H](C)C(CCC(C)=O)=CC[C@H]12
study-target: Candida albicans
censoring-qualifier: =
observed: 31.6
--
molecule: C=C1C(=O)O[C@@H]2C[C@@]3(C)CCCC(=C)[C@]3(O)C[C@H]12
study-target: Candida albicans
censoring-qualifier: >
observed: 128
--
molecule: C=C1C(=O)O[C@H]2C[C@H](C)[C@@H]3CC[C@@]4(C)O[C@@]34C[C@H]12
study-target: Candida albicans
censoring-qualifier: =
observed: 106
--
molecule: C=C1C(=O)O[C@@H]2C[C@H](C)C(CCC(C)OC(=O)C(C)CC)=CC[C@H]12 (some centres undefined)
study-target: Candida albicans
censoring-qualifier: =
observed: 105
